Data provenance: PubChem BioAssay (NCI)

# System: NCI-H522 lung
# ASSAY_PROCEDURE: NCI-60 one-dose screen, 48 h
# PARTICULARS: 10 µM unless noted
# Protocol: Growth inhibition of the NCI-H522 human Non-Small Cell Lung tumor cell line is measured as a screen for anti-cancer activity. Cells are grown in 96 well plates and exposed to the test compound for 48 hours. Compounds are tested at a single concentration, which is 10^-5 M for most compounds. The reported endpoint is percent growth (GI% or GIPRCNT), where numbers from 0 - 100% represent growth inhibition, and numbers from -100% - 0 represent cell death. […]
The panel holds about 83,000 compounds, 20% with a hit somewhere; the sample as a whole holds those more often. Activity calls are given as the source filed them. How the source made its calls: active means growth percent below 10; inactive means the rest.
Answer with one of the outcomes given here: T for active, F for inactive

Worked examples, 4 compounds total:
INSERT INTO measurements (compound, category_label) VALUES
  ('COc1ccc(N=Nc2c(N)nn3c(-c4ccc5c(c4)C=S=C5)ccnc23)cc1', 'T'),
  ('O=C(NNC(=O)c1ccc(OCc2nc3ccc(Cl)cc3[nH]2)cc1)Nc1ccc(Cl)c(C(F)(F)F)c1', 'F'),
  ('O=C(Cn1c(-c2ccccc2)nc2ccccc21)N=Nc1c(O)[nH]c2ccc(Cl)cc12', 'F'),
  ('O=S(=O)(c1nc(-c2ccc(Br)cc2)oc1-c1ccc(Cl)cc1)N1CCCC(O)C1 (stereo not given)', 'F');

[Q] Assay outcome for `CC(=O)Nc1ccc(S(=O)(=O)Nc2ccc(-c3ccc4c(c3)NC(=O)/C4=C\c3ccc[nH]3)cc2)cc1` : what was it?
[A] F

###

# Test system: A498 renal
# ASSAY_PROCEDURE: NCI-60 one-dose screen, 48 h (100 = growth as untreated, 0 = no growth, -100 = all killed)
# PARTICULARS: 10 µM unless noted
Compounds without any hit were thinned out: in the full panel of roughly 83,000, 20% have a hit.
READOUT_NAME: growth (%)
Give your result in % as a bare value.

Worked cases, growth given:
INSERT INTO assay_data (compound, readout_name, u, recorded_number) VALUES
  ('O=C(N/N=C/c1ccsc1)c1[nH]c2ccc(Br)cc2c1-c1ccccc1', 'growth', '%', -48.1),
  ('Cc1cn(-c2cc(NC(=O)c3ccc(C)c(-n4cc(-c5cnc6cccnn56)nn4)c3)cc(C(F)(F)F)c2)cn1', 'growth', '%', 185),
  ('COc1ccc(Nc2nnc(-c3c[nH]c4ccccc34)o2)cc1', 'growth', '%', 130),
  ('Cc1nn(-c2ccccc2)c2nc(C)n(CC(=O)N/N=C/c3cccc([N+](=O)[O-])c3)c(=O)c12', 'growth', '%', 95.8),
  ('Cc1cc(C(NC(=O)C2CC3(CC(Nc4cccc5c4C(=O)N(C4CCC(=O)NC4=O)C5=O)C3)C2)c2ccc3c(c2)OC(F)(F)O3)c(O)c2ncccc12 (configuration not stated)', 'growth', '%', 115),
  ('O=c1[nH]c2ccccc2cc1CSc1ccccc1Nc1nccc(-c2ccc3c(c2)OCO3)n1', 'growth', '%', 126),
  ('CN(C)c1nc(NCCNS(=O)(=O)c2ccc(C(=O)/C=C/c3ccc(Cl)cc3)cc2)nc(N2CCOCC2)n1', 'growth', '%', 87.6),
  ('CC[C@]12C=CCN3CC[C@]4(C(=C(C(=O)OC)C1)Nc1cc(OC)c([C@@H]5[C@H]6O[C@H]6[C@@]6(CC)CC(C(=O)OC)=C7Nc8cc(OC)ccc8[C@@]78CCN5[C@@H]68)cc14)[C@@H]32', 'growth', '%', 141),
  ('CCCCCCCCCc1ccc(C(=O)Nc2cc(C)ccc2C(=O)OC)cc1', 'growth', '%', 128),
  ('COc1cc(C2CC(c3ccc(Cl)cc3)=Nc3c(N)nc(N)nc3N2)ccc1Oc1nc(Nc2ccc(F)cc2)nc(N(C)C)n1 (configuration not stated)', 'growth', '%', 59.5);

[Q] Field: growth (A498 renal). Entry: `O=C1NC(=S)/C(=C/c2cn(-c3ccccc3)nc2-c2ccccc2)S1`
[A] -4.62

[Q] Field: growth (A498 renal). Entry: `Cc1ccc(-c2cc(-c3ccccc3)[nH]c(=O)c2C#N)cc1`
[A] 84.8

[Q] Field: growth (A498 renal). Entry: `COc1ccc2[nH]c(O)c(N=Nc3nc(-c4ccccc4)cs3)c2c1`
[A] -34.8

[Q] Field: growth (A498 renal). Entry: `O=C(N/N=C/c1occc1Br)c1[nH]c2ccc(Br)cc2c1-c1ccccc1`
[A] -89.6

[Q] Field: growth (A498 renal). Entry: CN1C(=O)C2(C(C#N)=C(c3ccc(Cl)cc3)Nc3c2c(-c2ccccc2)nn3-c2ccccc2)c2ccccc21 (configuration not stated)
[A] 144

[Q] Field: growth (A498 renal). Entry: `COc1ccc(OC)c(Cn2cc(C#N)c(N)c2C(=O)c2ccc(Br)cc2)c1`
[A] 86.7

[Q] Field: growth (A498 renal). Entry: `CC(C)(C)OC(=O)N1CCC2(CC1)Oc1ccccc1[C@H]1CC(c3ccc(Br)cc3)=NN12`
[A] 98.7
